# measuredTarget: Cellular tumor antigen p53 (Homo sapiens) (UniProt P04637)
# Sequence (P04637 whole entry, looked up): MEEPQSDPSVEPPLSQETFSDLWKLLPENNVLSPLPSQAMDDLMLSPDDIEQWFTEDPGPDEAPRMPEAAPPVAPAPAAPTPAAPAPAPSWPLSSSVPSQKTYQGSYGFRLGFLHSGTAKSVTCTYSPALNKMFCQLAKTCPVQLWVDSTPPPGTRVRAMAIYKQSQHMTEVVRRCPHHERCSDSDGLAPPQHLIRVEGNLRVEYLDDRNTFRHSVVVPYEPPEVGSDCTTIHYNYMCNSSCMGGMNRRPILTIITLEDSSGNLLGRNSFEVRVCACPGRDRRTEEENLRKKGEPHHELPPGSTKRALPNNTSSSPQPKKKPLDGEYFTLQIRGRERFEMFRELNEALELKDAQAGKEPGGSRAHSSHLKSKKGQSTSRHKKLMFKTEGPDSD
# assayRemarks: p53 stabilisation in HPV-positive human cells, imaging, p53-positive nuclei imaging, 24 h, 48 h (AID 1508601)
# experimentalConditions: 24/48 h, measured here: p53 positive nuclei at 24 h, Library stock concentration: 10 mM, stronger effect = higher value
The whole screen tested about 5,700 compounds, of which about 85 (1%) were called active. The sample holds actives, similar compounds and a random draw of the others, so the mix is not that of the screen.
Entries and their p53-positive nuclei, normalised values follow.
Write the number in % without appending the unit.

QUERY: Endpoint output: p53-positive nuclei, normalised of Cc1sc2c(c1C)C(c1ccc(Cl)cc1)=NC(CC(=O)Nc1ccc(O)cc1)c1nnc(C)n1-2 (centres undefined) . Value?
RESULT: 46.6

QUERY: Any idea what p53-positive nuclei, normalised was measured for OC1CN2CCC(O)[C@H]2C(O)C1O (some centres undefined) ?
RESULT: 0.108

QUERY: Please report the recorded p53-positive nuclei, normalised for CC1OC(O[C@H]2CC[C@@]3(C)[C@@H](CC[C@@H]4[C@H]3CC[C@]3(C)[C@@H](C5=CC(=O)OC5)CC[C@]43O)C2)CC(O)C1O (some centres undefined) .
RESULT: 0.952

QUERY: What does the record list as p53-positive nuclei, normalised for CC1=C(O)C(=O)C=C2C1=CC=C1[C@@]2(C)CCC2(C)C3C[C@](C)(C(=O)O)CC[C@]3(C)CC[C@]12C (some centres undefined) ?
RESULT: 10.2
